molecular target: T1, HLA-A2/E6 (29-38) tetramer (human; HPV 16); assay: tetramer flow cytometry; transfected 1:1 CD4+ and CD4+/CD8+ Jurkat-derived cells;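 also: cell mixtures transiently transfected with TCR-encoding plasmids, analysed by flow cytometry 48 h later after HLA-A*02:01 E6 tetramer staining combined with anti-CD8 antibody co-staining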
T1 construct: also called E6(29-38) peptide-MHC tetramer; E6(29-38)-loaded tetramer
A collection of binders and their measured % cells in E6 tet-/CD8+ quadrant
Just the number in %, nothing appended.

// below: answered binders
{"columns": ["BINDER", "% cells in E6 tet-/CD8+ quadrant, %"],
 "data": [
  ["TCR 20 (codon optimized, cysteine modified version) (TCR, V domains shown) V domain 1: AQKVTQAQTEISVVEKEDVTLDCVYETRDTTYYLFWYKQPPSGELVFLIRRNSFDEQNEISGRYSWNFQKSTSSFNFTITASQVVDSAVYFCALWTGANNLFFGTGTRLTVIP V domain 2: GAVVSQHPSRVICKSGTSVKIECRSLDFQATTMFWYRQFPKQSLMLMATSNEGSKATYEQGVEKDKFLINHASLTLSTLTVTSAHPEDSSFYICSASSLARRSYEQYFGPGTRLTVTE", 5.17],
  ["TCR 27 (codon optimized, cysteine modified version) (TCR, V domains shown) V domain 1: DAKTTQPNSMESNEEEPVHLPCNHSTISGTDYIHWYRQLPSQGPEYVIHGLTSNVNNRMASLAIAEDRKSSTLILHRATLRDAAVYYCILRVPPQSGGYQKVTFGTGTKLQVIP V domain 2: NAGVTQTPKFQVLKTGQSMTLQCAQDMNHNSMYWYRQDPGMGLRLIYYSASEGTTDKGEVPNGYNVSRLNKREFSLRLESAAPSQTSVYFCASSEFGSLNEKLFFGSGTQLSVLE", 20.1],
  ["TCR 19 (codon optimized, cysteine modified version) (TCR, V domains shown) V domain 1: AQKITQTQPGMFVQEKEAVTLDCTYDTSDQSYGLFWYKQPSSGEMIFLIYQGSYDEQNATEGRYSLNFQKARKSANLVISASQLGDSAMYFCAMRENTGTASKLTFGTGTRLQVTL V domain 2: DVKVTQSSRYLVKRTGEKVFLECVQDMDHENMFWYRQDPGLGLRLIYFSYDVKMKEKGDIPEGYSVSREKKERFSLILESASTNQTSMYLCASSSWGQSTGEQYFGPGTRLTVTE", 7.71],
  ["TCR 18 (codon optimized, cysteine modified version) (TCR, V domains shown) V domain 1: KQEVTQIPAALSVPEGENLVLNCSFTDSAIYNLQWFRQDPGKGLTSLLLIQSSQREQTSGRLNASLDKSSGRSTLYIAASQPGDSATYLCAEGNAGGTSYGKLTFGQGTILTVHP V domain 2: DVKVTQSSRYLVKRTGEKVFLECVQDMDHENMFWYRQDPGLGLRLIYFSYDVKMKEKGDIPEGYSVSREKKERFSLILESASTNQTSMYLCASSFWGRSNSPLHFGNGTRLTVTE", 12]
]}

query: # % cells in E6 tet-/CD8+ quadrant lookup, item TCR 21 (codon optimized, cysteine modified version) (TCR, V domains shown) V domain 1: AQKITQTQPGMFVQEKEAVTLDCTYDTSDQSYGLFWYKQPSSGEMIFLIYQGSYDEQNATEGRYSLNFQKARKSANLVISASQLGDSAMYFCAMREGRVTGGGNKLTFGTGTQLKVEL V domain 2: NAGVTQTPKFQVLKTGQSMTLQCAQDMNHNSMYWYRQDPGMGLRLIYYSASEGTTDKGEVPNGYNVSRLNKREFSLRLESAAPSQTSVYFCASRPWGNQNTEAFFGQGTRLTVVE
result: 7.16
